Origin of the recorded values: ChEMBL document CHEMBL1649091

measurementTarget: Coagulation factor X (Homo sapiens) (UniProt P00742)
Sequence (P00742 41-179 limits assumed): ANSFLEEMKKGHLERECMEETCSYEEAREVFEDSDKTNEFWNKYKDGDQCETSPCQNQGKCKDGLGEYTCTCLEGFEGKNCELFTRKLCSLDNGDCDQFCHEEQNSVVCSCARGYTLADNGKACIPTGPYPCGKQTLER
Sequence (P00742 235-488 limits assumed): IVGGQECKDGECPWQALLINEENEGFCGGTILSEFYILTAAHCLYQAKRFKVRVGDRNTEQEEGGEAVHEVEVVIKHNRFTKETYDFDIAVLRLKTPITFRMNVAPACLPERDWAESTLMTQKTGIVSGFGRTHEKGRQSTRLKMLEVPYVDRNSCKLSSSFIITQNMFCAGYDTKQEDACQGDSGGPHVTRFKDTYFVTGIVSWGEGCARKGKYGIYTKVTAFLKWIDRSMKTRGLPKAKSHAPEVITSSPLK
method: Inhibition of human factor 10a assessed as 125 x 10^-6M chromogenic TH substrate hydrolysis at 0.5 x 10^-3M
Active and inactive are the calls of the source. The rule behind the calls is not given here.
metricName: inhibition

>>> experimentalvalue("C[C@H]1O[C@@H](OC[C@@H]2O[C@H](Oc3c(-c4ccc(OCCOS(=O)(=O)O)c(OCCOS(=O)(=O)O)c4)oc4cc(OCCOS(=O)(=O)O)cc(O)c4c3=O)[C@@H](OS(=O)(=O)O)[C@H](OS(=O)(=O)O)[C@H]2OS(=O)(=O)O)[C@@H](OS(=O)(=O)O)[C@@H](OS(=O)(=O)O)[C@@H]1OS(=O)(=O)O")
"inactive"
>>> experimentalvalue("COc1ccc([C@@H]2CC(=O)c3c(O)cc(O[C@@H]4O[C@H](CO[C@@H]5O[C@@H](C)[C@H](OS(=O)(=O)O)[C@@H](OS(=O)(=O)O)[C@H]5OS(=O)(=O)O)[C@@H](OS(=O)(=O)O)[C@H](OS(=O)(=O)O)[C@H]4OS(=O)(=O)O)cc3O2)cc1O")
"inactive"
>>> experimentalvalue("C[C@H]1O[C@@H](OC[C@@H]2O[C@H](Oc3c(-c4ccc(OS(=O)(=O)O)c(OS(=O)(=O)O)c4)oc4cc(OS(=O)(=O)O)cc(OS(=O)(=O)O)c4c3=O)[C@@H](OS(=O)(=O)O)[C@H](OS(=O)(=O)O)[C@H]2OS(=O)(=O)O)[C@@H](OS(=O)(=O)O)[C@@H](OS(=O)(=O)O)[C@@H]1OS(=O)(=O)O")
"22.4%"
>>> experimentalvalue("COc1ccc(-c2cc(=O)c3c(O)cc(O[C@@H]4O[C@H](CO[C@@H]5O[C@@H](C)[C@H](OS(=O)(=O)O)[C@@H](OS(=O)(=O)O)[C@H]5OS(=O)(=O)O)[C@@H](OS(=O)(=O)O)[C@H](OS(=O)(=O)O)[C@H]4OS(=O)(=O)O)cc3o2)cc1O")
"inactive"
